Here, each record is paired with measured log10(IC50) data.
Tested on: A375 (melanoma cells)
Test: MTT assay
Format: cell-based
Conditions: Homo sapiens, A-375, 48 h, read-out: IC50, cytotoxicity
observable: log10(IC50) (log10 of the value in µg/mL)

molecule=O=C(Cc1cccc2ccccc12)NNC(=S)Nc1ccc(N=Nc2ccccc2)cc1 observed_result=0.39
molecule=O=C(NNC(=S)NC(=O)c1ccccc1Cl)c1ccc(O)c([N+](=O)[O-])c1 observed_result=1.14
molecule=O=C(NC(=S)NNC(=O)c1ccccc1[N+](=O)[O-])c1ccc([N+](=O)[O-])cc1 observed_result=0.90
molecule=O=C(Cc1cccc2ccccc12)NNC(=S)Nc1c(F)cccc1F observed_result=1.48
molecule=CC(C)c1cccc(C(C)C)c1NC(=S)NNC(=O)Cc1cccc2ccccc12 observed_result=0.26
molecule=O=C(Cc1cccc2ccccc12)NNC(=S)NC(=O)c1ccccc1Cl observed_result=0.98
molecule=O=C(Cc1cccc2ccccc12)NNC(=S)NC(=O)c1ccccc1 observed_result=0.91
molecule=O=C(NNC(=S)Nc1ccc(N=Nc2ccccc2)cc1)c1ccccc1[N+](=O)[O-] observed_result=-0.25
molecule="COc1cc([C@@H]2c3cc4c(cc3[C@@H](O[C@@H]3O[C@@H]5CO[C@@H](C)O[C@H]5[C@H](O)[C@H]3O)[C@H]3COC(=O)[C@H]23)OCO4)cc(OC)c1O [Etoposide, etoposide, reference compound]" observed_result=0.81
molecule=O=C(NNC(=S)Nc1c(F)cccc1F)c1ccccc1[N+](=O)[O-] observed_result=1.17
molecule=Cc1cccc(C(=O)NC(=S)NNC(=O)c2ccccc2[N+](=O)[O-])c1 observed_result=1.59

* * *

Tested on: AGS (human gastric adenocarcinoma)
Assay: MTT assay
Assay type: cell-based
Conditions: 48 h, read-out: IC50, cytotoxicity
observable: IC50 (µg/mL)

line_notation=O=C(Cc1cccc2ccccc12)NNC(=S)NC(=O)c1ccccc1 result_unit=µg/mL observed_result=19.7
line_notation=O=C(NNC(=S)Nc1ccc(N=Nc2ccccc2)cc1)c1ccccc1[N+](=O)[O-] result_unit=µg/mL observed_result=4.31
line_notation=O=C(NC(=S)NNC(=O)c1ccccc1[N+](=O)[O-])c1ccc([N+](=O)[O-])cc1 result_unit=µg/mL observed_result=29.8

* * *

Tested on: SCC-25 (squamous cell carcinoma of the tongue)
Assay: MTT assay
Format: cell-based
Conditions: Homo sapiens; SCC-25, MTT, 24h; read-out: IC50, cytotoxicity
observable: IC50 (µg/mL)

line_notation=O=C(Cc1cccc2ccccc12)NNC(=S)Nc1c(F)cccc1F result_unit=µg/mL result_modifier== observed_result=52.4
line_notation=O=C(NNC(=S)Nc1c(F)cccc1F)c1ccccc1[N+](=O)[O-] result_unit=µg/mL result_modifier=> observed_result=100
line_notation=O=C(Cc1cccc2ccccc12)NNC(=S)Nc1ccc(N=Nc2ccccc2)cc1 result_unit=µg/mL result_modifier== observed_result=4.73
line_notation=Cc1cccc(C(=O)NC(=S)NNC(=O)c2ccccc2[N+](=O)[O-])c1 result_unit=µg/mL result_modifier=> observed_result=100

* * *

Tested on: AGS (human gastric adenocarcinoma)
Assay: MTT assay
Format: cell-based
Settings: 48 h, read-out: IC50, cytotoxicity
Here, each record is paired with measured IC50 data.
observable: IC50 (µg/mL)

compound="O=C(NNC(=S)Nc1c(F)cccc1F)c1ccccc1[N+](=O)[O-] [Compound 4]" observable=IC50 result_unit=µg/mL result_modifier== observed_result=63.9
compound="COc1cc([C@@H]2c3cc4c(cc3[C@@H](O[C@@H]3O[C@@H]5CO[C@@H](C)O[C@H]5[C@H](O)[C@H]3O)[C@H]3COC(=O)[C@H]23)OCO4)cc(OC)c1O [Etoposide, etoposide, reference compound]" observable=IC50 result_unit=µg/mL result_modifier== observed_result=29.8
compound="O=C(NNC(=S)NC(=O)c1ccccc1Cl)c1ccc(O)c([N+](=O)[O-])c1 [Compound 7]" observable=IC50 result_unit=µg/mL result_modifier== observed_result=18.8
compound="O=C(Cc1cccc2ccccc12)NNC(=S)NC(=O)c1ccccc1Cl [Compound 8]" observable=IC50 result_unit=µg/mL result_modifier=> observed_result=100
compound="O=C(Cc1cccc2ccccc12)NNC(=S)Nc1ccc(N=Nc2ccccc2)cc1 [Compound 2]" observable=IC50 result_unit=µg/mL result_modifier== observed_result=2.96
compound="O=C(Cc1cccc2ccccc12)NNC(=S)Nc1c(F)cccc1F [Compound 10]" observable=IC50 result_unit=µg/mL result_modifier== observed_result=21.1
compound="Cc1cccc(C(=O)NC(=S)NNC(=O)c2ccccc2[N+](=O)[O-])c1 [Compound 5]" observable=IC50 result_unit=µg/mL result_modifier== observed_result=63.9
compound="CC(C)c1cccc(C(C)C)c1NC(=S)NNC(=O)Cc1cccc2ccccc12 [Compound 1]" observable=IC50 result_unit=µg/mL result_modifier== observed_result=2.69

* * *

Here, each record is paired with measured IC50 at 48 h data.
Assay: MTT assay
Assay type: cell-based
Conditions: human, HEK-293 cells (normal reference cell line), HEK-293 (normal cells), 48h, read-out: IC50, cytotoxicity
observable: IC50 at 48 h (µg/mL)

molecule="COc1cc([C@@H]2c3cc4c(cc3[C@@H](O[C@@H]3O[C@@H]5CO[C@@H](C)O[C@H]5[C@H](O)[C@H]3O)[C@H]3COC(=O)[C@H]23)OCO4)cc(OC)c1O [Etoposide, etoposide, reference compound]" observable="IC50 at 48 h" result_unit=µg/mL result_modifier== observed_result=29.1
molecule="O=C(NNC(=S)Nc1c(F)cccc1F)c1ccccc1[N+](=O)[O-] [Compound 4]" observable="IC50 at 48 h" result_unit=µg/mL result_modifier=> observed_result=100
molecule="O=C(NC(=S)NNC(=O)c1ccccc1[N+](=O)[O-])c1ccc([N+](=O)[O-])cc1 [Compound 6]" observable="IC50 at 48 h" result_unit=µg/mL result_modifier== observed_result=60.1
molecule="O=C(Cc1cccc2ccccc12)NNC(=S)Nc1c(F)cccc1F [Compound 10]" observable="IC50 at 48 h" result_unit=µg/mL result_modifier== observed_result=19.5
